# tested-on: sigma-2 binding site (Cavia porcellus)
# Construct: Guinea pig whole membrane preparations (P2 microsomal fraction); from tissue; host or cells: guinea pig membranes (P2 microsomal fraction), as described by Weber et al; brain inferred from the sister test b489
# protocol-description: biochemical
# Set-up: species or system guinea pig
# test-parameters: Table 10; read-out: SIGMA-2 KI vs. 3H-DTG + PENTAZOCINE MEAN
measured-parameter: Ki (nM)
Numbers only, in nM.

[
  {
    "compound": "c1ccc(CCCNCCc2ccccc2)cc1 [Compound 87, N-(3-phenylpropyl)phenethylamine]",
    "result": 90.1
  }
]

Each compound below has a reported value. Please supply its Ki.
1. c1ccc(CCCCN2CCN(Cc3ccccc3)CC2)cc1 [Compound 79, N-(4-phenylbutyl)-N'-benzylpiperazine]
2. c1ccc(CCCCCCCNCCc2ccccc2)cc1 [Compound 91, N-(7-phenylheptyl)phenethylamine]
3. CC(Cc1ccc2ccccc2c1)NCCCc1ccccc1 (stereo not drawn) [Compound 18]
4. c1ccc(CCCNCCCc2ccccc2)cc1 [Compound 15, Di-(3-phenylpropyl)-amine]
5. C[C@@H](Cc1ccccc1)NCCCc1ccccc1 [Compound 43]
6. O=C1c2ccccc2C(=O)N1CCCN1CCN(c2ccccc2)CC1 [Compound 96]
7. C[C@@H](Cc1ccccc1)N(C)CCCc1ccccc1 [Compound 113]
8. C[C@H](Cc1ccccc1)NCCCc1ccccc1 [Compound 1]

Outgoing:
1. 6.99
2. 33.2
3. 15.1
4. 63.9
5. 37.5
6. 149
7. 4.87
8. 60.8

---

# tested-on: sigma-1 binding site (Cavia porcellus, UniProt Q60492)
# Construct: Guinea pig whole membrane preparations (P2 microsomal fraction); from tissue; host or cells: guinea pig membranes (P2 microsomal fraction), as described by Weber et al; brain inferred from the sister test b489
# Sequence (Q60492 whole entry): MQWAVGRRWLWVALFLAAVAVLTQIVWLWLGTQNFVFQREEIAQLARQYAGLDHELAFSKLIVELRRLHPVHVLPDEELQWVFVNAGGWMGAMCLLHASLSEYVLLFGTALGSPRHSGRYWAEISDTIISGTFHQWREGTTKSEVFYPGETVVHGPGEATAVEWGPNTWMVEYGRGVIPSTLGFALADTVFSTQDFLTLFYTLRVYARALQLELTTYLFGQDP
# protocol-description: biochemical
# Design: species or system guinea pig
# test-parameters: guinea pig, microsomes
# Experimental: [^3 H]DTG was purchased from DuPont/NEN. The radioactivity on the filters was determined by scintillation spectrometry at an efficiency of about 50% using Cytoscint (ICN) scintillation fluid.
measured-parameter: S1/S2 Ratio

Previously resolved entries follow.
[
  {
    "compound": "C[C@@H](Cc1ccccc1)NCCCCc1ccccc1 [Compound 44, N-(4-phenylbutyl)-1-phenyl-2-propylamine]",
    "S1/S2 Ratio": ".543"
  },
  {
    "compound": "c1ccc(CNCCCCCC2CCCCC2)cc1 [Compound 94, N-(5-cyclohexylpentyl)benzylamine]",
    "S1/S2 Ratio": 0.019
  }
]

Now consider the entry below.
Incoming: Fetch value of S1/S2 Ratio on sigma-1 binding site (Cavia porcellus, UniProt Q60492) for C[C@@H](Cc1ccccc1)NCCCCCc1ccccc1 [Compound 45] .
Outgoing: .048

---

# tested-on: sigma-2 binding site (Cavia porcellus, UniProt H0V073)
# Construct: Guinea pig whole membrane preparations (P2 microsomal fraction); from tissue; host or cells: guinea pig membranes (P2 microsomal fraction), as described by Weber et al; brain inferred from the sister test b489
# Sequence (H0V073 1-176): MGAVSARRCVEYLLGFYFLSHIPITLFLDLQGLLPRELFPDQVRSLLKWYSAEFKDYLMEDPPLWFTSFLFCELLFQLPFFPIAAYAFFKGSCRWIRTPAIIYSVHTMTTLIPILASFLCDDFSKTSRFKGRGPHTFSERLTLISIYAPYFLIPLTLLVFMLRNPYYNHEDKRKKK
# protocol-description: biochemical
# Design: species or system guinea pig
# test-parameters: Example 9; read-out: sigma-2 IC50
measured-parameter: IC50 (nM)
Numbers only, in nM.

[
  {
    "compound": "c1ccc(CCCCNCCc2ccccc2)cc1 [Compound 71, N-(4-phenylbutyl)phenethylamine]",
    "unit-abbreviation": "nM",
    "result": 120
  },
  {
    "compound": "c1ccc(CCCCNCc2ccccc2)cc1 [Compound 75, N-(4-phenylbutyl)benzylamine]",
    "unit-abbreviation": "nM",
    "result": 160
  },
  {
    "compound": "c1ccc(CCCNCCc2ccccc2)cc1 [Compound 87, N-(3-phenylpropyl)phenethylamine]",
    "unit-abbreviation": "nM",
    "result": 90
  }
]

Now consider the entry below.
Incoming: Provide only the value of recorded IC50 for CCCN(C)CCCCCc1ccccc1 [Compound 112, N-methyl-N-propyl-5-phenylpentylamine]
Outgoing: 40

---

# tested-on: 5-HT1A receptor (Rattus norvegicus)
# Sequence (P19327 whole entry): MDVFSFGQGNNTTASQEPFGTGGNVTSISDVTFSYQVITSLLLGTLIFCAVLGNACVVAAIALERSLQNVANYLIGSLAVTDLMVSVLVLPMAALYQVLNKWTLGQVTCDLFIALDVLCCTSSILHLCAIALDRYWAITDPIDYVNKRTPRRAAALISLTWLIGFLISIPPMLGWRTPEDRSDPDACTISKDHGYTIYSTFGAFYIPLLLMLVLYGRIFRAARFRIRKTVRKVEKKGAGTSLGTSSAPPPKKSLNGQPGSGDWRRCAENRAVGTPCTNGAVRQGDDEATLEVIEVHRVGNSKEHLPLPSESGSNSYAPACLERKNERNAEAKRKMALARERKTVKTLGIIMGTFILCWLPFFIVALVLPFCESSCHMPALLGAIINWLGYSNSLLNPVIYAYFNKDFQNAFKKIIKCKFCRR
# protocol-description: biochemical
# Format: binding
# Design: 47: 529-540 (1986); from tissue; host or cells: brain tissue, inferred from the cited method (rat frontal cortex)
# test-parameters: Table 5; read-out: 5-HT1A IC50
measured-parameter: pIC50
Numbers only, as −log10 of the molar value.

[
  {
    "compound": "CC(Cc1ccc(I)cc1)NCCCc1ccccc1 (racemic) [Compound 22]",
    "tested-on": "5-HT1A receptor (Rattus norvegicus)",
    "measured-parameter": "pIC50",
    "result": 6.69
  }
]

Each compound below has a reported value. Please supply its pIC50.
1. Clc1cccc(N2CCN(CCc3ccccc3)CC2)c1 [Compound 32]
2. CCCC(N)Cc1ccccc1 (racemic) [Compound 34, (±) 1-Phenyl-2-aminopentane]

Outgoing:
1: 8.06; 2: 5.18

Each compound below has a reported value. Please supply its pIC50.
1. CC(Cc1cccc2ccccc12)NCCCc1ccccc1 (racemic) [Compound 16]
2. c1ccc(CCCNC2CCc3ccccc3CC2)cc1 [Compound 49]
3. CC(Cc1ccc2ccccc2c1)NCCCc1ccccc1 (racemic) [Compound 17]
4. CC(Cc1ccc(Br)cc1)NCCCc1ccccc1 (racemic) [Compound 21]
5. CCCN[C@H](C)Cc1ccccc1 [Compound 5]
6. C[C@H](Cc1ccccc1)NCCCc1ccccc1 [Compound 1]

Outgoing:
1. 7.35
2. 6.50
3. 7.06
4. 6.71
5. 5.82
6. 6.94

---

For each entry below, report its IC50 value.
# tested-on: sigma-1 binding site (Cavia porcellus)
# Construct: Guinea pig whole membrane preparations (P2 microsomal fraction); from tissue; host or cells: guinea pig membranes (P2 microsomal fraction), as described by Weber et al; brain inferred from the sister test b489
# protocol-description: biochemical
# Design: species or system guinea pig
# Method: [^3 H]DTG was purchased from DuPont/NEN. The radioactivity on the filters was determined by scintillation spectrometry at an efficiency of about 50% using Cytoscint (ICN) scintillation fluid.
One number for each entry, in nM.

[
  {
    "chemical-smiles": "C[C@@H](Cc1ccccc1)NCCCCCc1ccccc1",
    "tested-on": "sigma-1 binding site (Cavia porcellus)",
    "IC50 / nM": 0.88
  }
]

Each molecule below has a reported value. Please supply its IC50.
1. c1ccc(CCCCCNCCCCc2ccccc2)cc1
2. c1ccc(CNCCCCCC2CCCCC2)cc1

Outgoing:
[0.48, 0.81]

---

For each entry below, report its IC50 value.
# tested-on: sigma receptor
# protocol-description: Sigma receptor binding, [^3 H]DTG, brain membranes (both sigma-1 and sigma-2 sites)
# Set-up: species or system guinea pig
# test-parameters: Table 6; [^3 H]DTG
Where a name gives a salt, the structure may show the parent alone.

[
  {
    "compound": "O=C1c2ccccc2C(=O)N1CCCCCN1CCN(c2ccccc2)CC1",
    "result": "6.18 nM"
  }
]

Each compound below has a reported value. Please supply its IC50.
1. CCCN(C)CCCCCc1ccccc1
2. c1ccc(CCCCCNCCc2ccccc2)cc1
3. C1CCC(CCCCCN2CCCCC2)CC1

Outgoing:
1: 2.65 nM; 2: 2.74 nM; 3: 0.96 nM

Each compound below has a reported value. Please supply its IC50.
1. Clc1ccc(N2CCN(CCCc3ccccc3)CC2)cc1
2. c1ccc(CCCCNCc2ccccc2)cc1
3. c1ccc(CCCNCCCC2CCCCC2)cc1 [Compound 92, Hydrochloride]
4. c1ccc(CCCN2CCCCC2)cc1
5. O=C(CCCCN1CCC(O)(c2ccc(Cl)cc2)CC1)c1ccc(F)cc1

Outgoing:
["3.01 nM", "13.6 nM", "2.99 nM", "69 nM", "2.82 nM"]

---

# tested-on: sigma-2 binding site (Cavia porcellus, UniProt H0V073)
# Construct: Guinea pig whole membrane preparations (P2 microsomal fraction); from tissue; host or cells: guinea pig membranes (P2 microsomal fraction), as described by Weber et al; brain inferred from the sister test b489
# protocol-description: biochemical
# Parameters: species or system guinea pig
# test-parameters: Table 17; read-out: IC50 (nM) at sigma-2
measured-parameter: IC50 (nM)
Answers are plain numbers, in nM.

Each compound below has a reported value. Please supply its IC50.
1. CC(Cc1cccc(C(F)(F)F)c1)NCCCc1ccccc1 (racemic)
2. CC(Cc1ccc(Br)cc1)NCCCc1ccccc1 (racemic)
3. CC(Cc1cccc(Br)c1)NCCCc1ccccc1 (racemic)

Outgoing:
[21, 39, 26]

Each compound below has a reported value. Please supply its IC50.
1. CC(Cc1ccc(I)cc1)NCCCc1ccccc1 (racemic)
2. C[C@H](Cc1ccccc1)NCCCc1ccccc1
3. CCOc1ccc(CC(C)NCCCc2ccccc2)cc1 (racemic)

Outgoing:
1. 76
2. 60
3. 34

---

# tested-on: sigma-1 binding site (Cavia porcellus, UniProt Q60492)
# Construct: Guinea pig whole membrane preparations (P2 microsomal fraction); from tissue; host or cells: guinea pig membranes (P2 microsomal fraction), as described by Weber et al; brain inferred from the sister test b489
# protocol-description: biochemical
# Parameters: species or system guinea pig
# test-parameters: Table 10; sigma-1/sigma-2
Field: label. Allowed values: Satisfied (S1/S2 Ratio < 0.1) or Not satisfied (S1/S2 Ratio >= 0.1).

[
  {
    "compound": "COc1ccccc1N1CCN(CCCCN2C(=O)c3ccccc3C2=O)CC1",
    "label": "Not satisfied"
  }
]

Incoming: I'd appreciate it if you could check whether c1ccc(CCCCCNCCCc2ccccc2)cc1 has S1/S2 Ratio smaller than 0.1.
Outgoing: Satisfied

Incoming: I'd appreciate it if you could check whether c1ccc(CCCCCNCc2ccccc2)cc1 has S1/S2 Ratio smaller than 0.1.
Outgoing: Satisfied

Incoming: I'd appreciate it if you could check whether CN(CCCc1ccc2ccccc2c1)CCCc1ccc2ccccc2c1 has S1/S2 Ratio smaller than 0.1.
Outgoing: Satisfied

Incoming: I'd appreciate it if you could check whether c1ccc(CCCCNCc2ccccc2)cc1 has S1/S2 Ratio smaller than 0.1.
Outgoing: Satisfied

Incoming: I'd appreciate it if you could check whether CN(C)CCCCCc1ccccc1 has S1/S2 Ratio smaller than 0.1.
Outgoing: Satisfied

Incoming: I'd appreciate it if you could check whether c1ccc(CCCCNCCc2ccccc2)cc1 has S1/S2 Ratio smaller than 0.1.
Outgoing: Satisfied

Incoming: I'd appreciate it if you could check whether Clc1cccc(N2CCN(CCc3ccccc3)CC2)c1 has S1/S2 Ratio smaller than 0.1.
Outgoing: Not satisfied

Incoming: I'd appreciate it if you could check whether CCCC(N)Cc1ccccc1 (racemic) [Compound 34, (±) 1-Phenyl-2-aminopentane] has S1/S2 Ratio smaller than 0.1.
Outgoing: Not satisfied

Incoming: I'd appreciate it if you could check whether c1ccc(CCCCCN2CCC(Cc3ccccc3)CC2)cc1 has S1/S2 Ratio smaller than 0.1.
Outgoing: Not satisfied

Incoming: I'd appreciate it if you could check whether CC(Cc1cccc(Br)c1)NCCCc1ccccc1 (racemic) has S1/S2 Ratio smaller than 0.1.
Outgoing: Not satisfied

Incoming: I'd appreciate it if you could check whether CN(C)CCCCCC1CCCCC1 has S1/S2 Ratio smaller than 0.1.
Outgoing: Satisfied

Incoming: I'd appreciate it if you could check whether C[C@H](Cc1ccccc1)NCCCc1ccc2ccccc2c1 has S1/S2 Ratio smaller than 0.1.
Outgoing: Satisfied

Incoming: I'd appreciate it if you could check whether c1ccc(CCCCN2CCN(Cc3ccccc3)CC2)cc1 has S1/S2 Ratio smaller than 0.1.
Outgoing: Satisfied

Incoming: I'd appreciate it if you could check whether O=C1c2ccccc2C(=O)N1CCCCN1CCN(c2ccccc2)CC1 has S1/S2 Ratio smaller than 0.1.
Outgoing: Not satisfied
